Source of measurements: the supplement of paper PMC7877785

test: self-splicing fitness, log relative to wild type (ln ratio); higher = more splicing; Tetrahymena group I intron in knt gene, E. coli kanamycin selection, DiMSum; sequences stand for … in CUCUCU…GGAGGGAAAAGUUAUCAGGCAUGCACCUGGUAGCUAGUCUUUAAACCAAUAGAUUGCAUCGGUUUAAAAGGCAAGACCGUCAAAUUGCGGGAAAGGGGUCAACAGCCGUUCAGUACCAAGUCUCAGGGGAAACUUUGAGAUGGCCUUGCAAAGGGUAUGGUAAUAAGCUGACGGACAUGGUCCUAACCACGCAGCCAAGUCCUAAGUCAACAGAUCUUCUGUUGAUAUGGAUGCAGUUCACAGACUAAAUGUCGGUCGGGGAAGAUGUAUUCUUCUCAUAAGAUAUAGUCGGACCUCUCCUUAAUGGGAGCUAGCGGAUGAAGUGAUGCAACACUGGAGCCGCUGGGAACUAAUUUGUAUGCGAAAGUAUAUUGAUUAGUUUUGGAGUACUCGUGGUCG; conditions: 37 °C;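 further: selection with 25 µg/mL kanamycin versus none on LB agar overnight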
The threshold is inclusive: self-splicing fitness (ln) of exactly -1 counts as YES; values below receive NO.

# biopolymer_sequence, category_label
rows = [
    ("UAGUAGCAAUAUUACGUGAA", "NO"),
    ("CCUAAGCAAUAUUACGUAUC", "NO"),
    ("GCGAAGCAAUAUUACGCCUG", "NO"),
    ("CGCUAGCAAUAUUACGGCUC", "YES"),
    ("UUCGAGCAAUAUUACGGGGA", "YES"),
    ("GUCCAGCAAUAUUACGCUGC", "YES"),
    ("UGUAAGCAAUAUUACGUGUA", "YES"),
    ("CUACAGCAAUAUUACGUUUA", "NO"),
    ("CCCUAGCAAUAUUACGCGUG", "NO"),
    ("GGCAAGCAAUAUUACGCAGG", "NO"),
    ("CCUAAGCAAUAUUACGAUAU", "NO"),
    ("GAGCAGCAAUAUUACGGGAC", "NO"),
    ("UUGGAGCAAUAUUACGCCGG", "NO"),
    ("UAAUAGCAAUAUUACGUGAU", "NO"),
    ("UGAUAGCAAUAUUACGGUUC", "NO"),
    ("UGCGAGCAAUAUUACGUUGA", "NO"),
]

----------
test: self-splicing fitness, log relative to wild type (ln ratio); higher = more splicing; Tetrahymena group I intron in knt gene, E. coli kanamycin selection, DiMSum; sequences stand for … in CUCUCU…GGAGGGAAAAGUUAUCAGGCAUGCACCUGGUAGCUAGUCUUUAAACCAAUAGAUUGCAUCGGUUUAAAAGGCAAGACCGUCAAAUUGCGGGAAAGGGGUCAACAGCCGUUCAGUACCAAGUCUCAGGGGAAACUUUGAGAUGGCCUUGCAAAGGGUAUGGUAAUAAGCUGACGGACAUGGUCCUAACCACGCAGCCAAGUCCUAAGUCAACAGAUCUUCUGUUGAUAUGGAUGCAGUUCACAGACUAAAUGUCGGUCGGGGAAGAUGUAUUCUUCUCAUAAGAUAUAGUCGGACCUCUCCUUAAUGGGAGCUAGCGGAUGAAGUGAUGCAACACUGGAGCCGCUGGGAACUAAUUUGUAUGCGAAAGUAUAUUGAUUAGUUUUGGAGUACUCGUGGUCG; conditions: 37 °C
# label = yes if self-splicing fitness (ln) >= -1 else no

# biopolymer_sequence, category_label
data = [
    ("AAACAGCAAUAUUACGGCCC", "yes"),
    ("UUCGAGCAAUAUUACGUGAA", "yes"),
    ("AUCAAGCAAUAUUACGGGCC", "yes"),
    ("UAAGAGCAAUAUUACGGCUU", "no"),
    ("AAUAAGCAAUAUUACGGCCA", "yes"),
    ("CCGGAGCAAUAUUACGGGAC", "no"),
    ("AAACAGCAAUAUUACGGAGU", "no"),
    ("UUGAAGCAAUAUUACGACCA", "yes"),
    ("CGCCAGCAAUAUUACGAUAC", "no"),
    ("UUAAAGCAAUAUUACGAACA", "yes"),
    ("GAACAGCAAUAUUACGGGCC", "no"),
    ("UGGGAGCAAUAUUACGUGCU", "no"),
    ("AACCAGCAAUAUUACGGGAC", "no"),
    ("AUCCAGCAAUAUUACGUAUG", "no"),
    ("UUAAAGCAAUAUUACGAACG", "yes"),
    ("GGUGAGCAAUAUUACGUUGU", "no"),
]
